Listed next: entries and their corresponding pKd.
# TARGET SYSTEM: biotinylated human DLL3 protein expressed as a human IgG1 fusion protein (human) (UniProt Q9NYJ7)
# Sequence (Q9NYJ7 27-492): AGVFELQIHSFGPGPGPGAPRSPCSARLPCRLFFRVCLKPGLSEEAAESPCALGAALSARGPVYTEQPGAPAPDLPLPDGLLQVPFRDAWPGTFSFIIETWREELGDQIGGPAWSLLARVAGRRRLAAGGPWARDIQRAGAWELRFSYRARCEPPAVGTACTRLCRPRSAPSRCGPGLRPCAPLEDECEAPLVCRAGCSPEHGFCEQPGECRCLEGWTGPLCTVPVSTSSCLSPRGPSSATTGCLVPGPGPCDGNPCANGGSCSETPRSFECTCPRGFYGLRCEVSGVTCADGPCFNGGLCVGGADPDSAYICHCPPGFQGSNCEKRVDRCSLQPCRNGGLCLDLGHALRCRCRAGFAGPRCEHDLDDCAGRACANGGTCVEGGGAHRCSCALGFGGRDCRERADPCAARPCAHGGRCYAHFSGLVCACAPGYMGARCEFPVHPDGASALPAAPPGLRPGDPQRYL
# TEST DETAILS: Octet, several concentrations of trispecific (60, 20, 6.67, 2.22 nM), human DLL3
pKd: −log10 of the molar value.
MEASUREMENT LABEL: pKd

INSERT INTO results (binder, measurement_label, result_number) VALUES
  ('anti-DLL3 trispecific protein, DLL3 binder 3A02 (protein, part only; not given: CD3 binder and albumin binder, part only) chain, part: EVQLVESGGGLVQPGGSLTLSCAASGSSVSFLSLAWYRQAPGKKRELVAGISADGSTAYIDSVKGRFTISRDNAKNSVYLQMNSLRAEDTAVYYCYAYRWRTRYTYWGQGTLVTVSSGGGGSGGGSGGGGSGGGSHHHHHH', 'pKd', 8.11),
  ('anti-DLL3 trispecific protein, DLL3 binder 2E02 (protein, part only; not given: anti-CD3 fragment and anti-albumin domain, part only) chain, part: EVQLVESGGGLVQPGGSLTLSCVASGSTSAINAMGWYRRAPGKQRELVAGISSDGSKVYVDSVKGRFTISRDNAKNSVYLQMNSLRAEDTAVYYCYYFRTVSGSSQRYWGQGTLVTVSSGGGGSGGGSGGGGSGGGSHHHHHH', 'pKd', 8.36),
  ('anti-DLL3 trispecific protein, DLL3 binder 1H012 (protein, part only; not given: CD3 binder and albumin binder, part only) chain, part: EVQLVESGGGLVQPGGSLTLSCVASGSTSSINAMGWYRRAPGKQRELVAGISSDGSKVYVDSVKGRFTISRDNAKNSVYLQMNSLRAEDTAVYYCYYFRTVSGSSMPYWGQGTLVTVSSGGGGSGGGSGGGGSGGGSHHHHHH', 'pKd', 8.54),
  ('anti-DLL3 trispecific protein, DLL3 binder 2E05 (protein, part only; not given: CD3 binder and albumin binder, part only) chain, part: EVQLVESGGGLVQPGGSLTLSCVASGSPSSINAYGWYRRAPGKQRELVAGISSDGSKVYSDSVKGRFTISRDNAKNSVYLQMNSLRAEDTAVYYCYYFRTVSGSSMSYWGQGTLVTVSSGGGGSGGGSGGGGSGGGSHHHHHH', 'pKd', 8.46),
  ('anti-DLL3 trispecific protein, DLL3 binder 3C04 (protein, part only; not given: CD3 binder and albumin binder, part only) chain, part: EVQLVESGGGLVQPGGSLTLSCAASGSHVSFLSMAWYRQAPGKKRELVAGISADGPTDYIDSVKGRFTISRDNAKNSVYLQMNSLRAEDTAVYYCYAYRWDTRYTYWGQGTLVTVSSGGGGSGGGSGGGGSGGGSHHHHHH', 'pKd', 8.40),
  ('anti-DLL3 trispecific protein, DLL3 binder 4D09 (protein, part only; not given: anti-CD3 fragment and anti-albumin domain, part only) chain, part: EVQLVESGGGLVQPGGSLTLSCAASGSSVKFLSMAWYRQAPGKKRELVAGISADGSTDYILSVKGRFTISRDNAKNSVYLQMNSLRAEDTAVYYCYAYEWTTRYTYWGQGTLVTVSSGGGGSGGGSGGGGSGGGSHHHHHH', 'pKd', 8.09),
  ('anti-DLL3 trispecific protein, DLL3 binder 2H02 (protein, part only; not given: anti-CD3 fragment and anti-albumin domain, part only) chain, part: EVQLVESGGGLVQPGGSLTLSCVASGSTSSINAMAWYRRAPGKQRELAAGISSDGSKVYADSVKGRFTISRDNAKNSVYLQMNSLRAEDTAVYYCYYFHTVSGSSMRYWGQGTLVTVSSGGGGSGGGSGGGGSGGGSHHHHHH', 'pKd', 8.36);
